assay_protocol: Components of the Cytosolic LPS Sensing Pathway: Gene Identification via Genome-wide siRNA Screen;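 note: robust z of the log signal after scaling to non-targeting control siRNA wells of the plate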
condition_description: RAW264.7 macrophages, IL-1a HTRF, actives lie on both sides, screened at 100 nM (by protocol), cells primed 5 h with Pam3CSK4 first
The whole screen tested about 53,000 sequences, of which about 3,700 (7%) were called active. Shown is part of a subset that was picked to be rich in actives.
z-score less than 0.2 is true (1); z-score greater than or equal to 0.2 is false (0).

{"entry_sequence": "UCGGCCAUGUAGUAUGGGATT against Xlr3a", "label": "false (0)"}
{"entry_sequence": "GCAGCUUGAGUUCUCGAAUTT against BC049715", "label": "false (0)"}
{"entry_sequence": "GCCAACCUCUGUGUGUAUUTT against Olfr1263", "label": "false (0)"}
{"entry_sequence": "GGACGACAGGAACUGGCAATT against Fbxo9", "label": "false (0)"}
{"entry_sequence": "GGAACUAUCCAGUAGGUAGTT against Mill2", "label": "false (0)"}
{"entry_sequence": "CGGAAAGUCCGGUUUCGAATT against Grxcr1", "label": "true (1)"}
{"entry_sequence": "GGAAGGUGGCUAUUUUAAUTT against Acsl3", "label": "true (1)"}
{"entry_sequence": "GGAGCCAGUGACAAUAAAUTT against Mtag2", "label": "true (1)"}
{"entry_sequence": "GGAAGUAGAGCUUCAAAUGTT against Cdkl2", "label": "false (0)"}
{"entry_sequence": "GGAGUUUGUAUCAAACUUATT against Zcchc8", "label": "true (1)"}
{"entry_sequence": "GGUCCCUGUGAACAAGCUGTT against Serpinf1", "label": "false (0)"}
{"entry_sequence": "GGUGGUCACUAAGAAGUUCTT against Prps1l1", "label": "false (0)"}
{"entry_sequence": "GGAGAAUUUAGAGCUACCATT against Atg10", "label": "true (1)"}
{"entry_sequence": "GGGAAGGAGAGUAUUCCAATT against Mrpl14", "label": "false (0)"}
{"entry_sequence": "CCAGUAUUUGAGAAUUCUGTT against Gm4788", "label": "true (1)"}
{"entry_sequence": "GGCAACAGACAAACAGCCGTT against Ugcg", "label": "true (1)"}
{"entry_sequence": "GUGUCCAGUCCUAAAACGATT against Trib3", "label": "false (0)"}
{"entry_sequence": "GGUUAUCAUGAGGCCUUGGTT against Olfr1339", "label": "true (1)"}
{"entry_sequence": "GGAUUUCAUUCCAAACAUGTT against Hbs1l", "label": "true (1)"}
{"entry_sequence": "GCUGUUUUAUCUCCAAUGGTT against Araf", "label": "false (0)"}
{"entry_sequence": "GGAAGAUCUCUUGUCUGCUTT against Mtcp1", "label": "true (1)"}
{"entry_sequence": "GGAGAAAAACAUCAUUGAATT against Reck", "label": "true (1)"}
{"entry_sequence": "GGGUUAUCCGUAUGUUUUCTT against Olfr557", "label": "false (0)"}
{"entry_sequence": "GCGGAACCUAUAUAGGAAUTT against Zfp74", "label": "true (1)"}
{"entry_sequence": "GGUGGACAAGGCAAUACAGTT against Mmp20", "label": "false (0)"}
